Please go through the items and note down their pKd.
Molecular target: T1, PDZD7_3, Q9H5P4
T1 sequence (Q9H5P4 857-944, limits assumed, looked up): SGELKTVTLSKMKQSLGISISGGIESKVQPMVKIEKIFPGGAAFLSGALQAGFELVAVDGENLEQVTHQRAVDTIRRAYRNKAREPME
Assay: holdup assay
Parameters: key: below the threshold = too weak to quantify, mostly under pKd 3.1 to 4
Details: plain residues with an end cap or a label only (N-terminal biotin on a linker: ado-ado)
One number for each entry.

binder: EAVTVESTSL [SLC22A11, Q9NSA0]
pKd: 4.8

Hey, can you go through the list below and give me pKd for every item?
1. GNDPDRGTSI [GRID2, O43424]
2. NISARRFTLC [FAM167B, Q9BTA0]
3. TKDKVQETQI [LRRC4, Q9HBW1]
4. EFKQTSSFLV [JAM1, Q9Y624]
5. PLPPEEESWV [GAS2L2, Q8NHY3]

4.1
3.88
5.51
4.03
4.32

// each listed binder needs a value for pKd
1. ATKDKKITTV [EXOC4, Q96A65]
2. HLSTRQGTCV [ATRNL1, Q5VV63]
3. EPAKETTTNV [SLC2A3, P11169]

1. 5.64
2. 4.2
3. 4.3
